Recorded AC50 for the following compounds
System: INS1
Experiment: INS-1E survival protection against cytokine death – cell-based, luminescence, retest, dose response (AID 449756);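 note: cell death triggered by IL-1 beta plus TNF-alpha plus IFN-gamma mixture; protective hits raise ATP signal compared with cytokine alone wells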
Assay type: functional
Conditions: Rattus norvegicus
Calls of active or inactive are those of the source. Cut-off read from the data, not from the text of the source: actives have a measured AC50 and inactives only a lower limit.

A selection of reference data follows.
{"Compound": "CC(=O)c1c(C)n(CC(=O)NCc2ccco2)c2ccccc12", "AC50": "> 260 µM (inactive)"}
{"Compound": "c1ccc(C(c2ccccc2)N2CCN(c3nc4ccccc4n4cnnc34)CC2)cc1", "AC50": "4.56 µM (active)"}
{"Compound": "Cc1cc(C)c(OCC(O)CNC(C)(C)C)c(C)c1 (centres undefined)", "AC50": "> 120 µM (inactive)"}
{"Compound": "O=[N+]([O-])c1ccc(N=Nc2c(Cl)cc(O)cc2Cl)cc1", "AC50": "1.73 µM (active)"}
{"Compound": "COc1ccccc1/C=C1\\SC(=O)N(CCC(=O)NCCCn2ccnc2)C1=O", "AC50": "5.64 µM (active)"}

The reported AC50 of the compound `Cc1cccc(/C=N\NC(=O)c2ccc(Cl)cc2)c1O` was 0.597 µM (active)

The reported AC50 of the compound `CCN(CC)S(=O)(=O)c1ccc(N2CCN(c3ccccc3OC)CC2)c(N)c1` was 3.55 µM (active)

The reported AC50 of the compound CCCCC(=O)NC(c1ccc(N(CC)CC)cc1)c1ccc2cccnc2c1O (centres undefined) was 0.38 µM (active)

The reported AC50 of the compound `Cc1cc2c(NCCc3ccccc3)ncnc2s1` was 1.98 µM (active)
